System name: DNA topoisomerase 2-alpha (Homo sapiens)
Method description: Inhibition of human topoisomerase-2 alpha assessed as Escherichia coli pBR322 DNA cleavage at 100 uM after 30 mins by agarose electrophoresis
The source made the active and inactive calls. The rule behind the calls is not given here.
Endpoint label: inhibition

COc1cc([C@@H]2c3cc4c(cc3[C@@H](OCCCCO[C@@H]3c5cc6c(cc5[C@@H](c5cc(OC)c(O)c(OC)c5)[C@H]5C(=O)OC[C@@H]53)OCO6)[C@H]3COC(=O)[C@H]23)OCO4)cc(OC)c1O :: Active
COc1cc([C@@H]2c3cc4c(cc3[C@@H](O[C@@H]3O[C@@H]5CO[C@@H](C)O[C@H]5[C@H](O)[C@H]3O)[C@H]3COC(=O)[C@H]23)OCO4)cc(OC)c1O [ETOPOSIDE] :: Active
COc1cc([C@@H]2c3cc4c(cc3[C@@H](OCc3ccccc3)[C@H]3COC(=O)[C@H]23)OCO4)cc(OC)c1O :: Active

meta.source: ChEMBL document CHEMBL3352615
